# abundance fitness per entry
B1: POU domain, class 2, transcription factor 1, residues 285 to 354; numbered along this chain, P14859 (parent)
chain: LEELEQFAKTFKQRRIKLGFTQGDVGLAMGKLYGNDFSQTTISRFEALNLSFKNMCKLKPLLEKWLNDAE

Variants of: B1
assayProtocol: abundance fitness (aPCA) (normalised: wild type 0, dead -1); higher = more abundant; growth selection in yeast, the domain comes from the species named
conditionsUsed: Homo sapiens

Sample answers from the record:
>  <residueChange>
G19A

>  <abundance fitness>
-0.391

$$$$
>  <residueChange>
A47H

>  <abundance fitness>
-0.107

$$$$
>  <residueChange>
S38E

>  <abundance fitness>
-0.03

$$$$

In the following, a different variant is considered.
Request the reported abundance fitness associated with "A28K"
-0.008
